The following compounds are listed with their measured plant injury at 125 g/ha values.
Tested on: wheat
assay remarks: Test A preemergence
Assay type: in vivo, Triticum aestivum
details: Triticum aestivum, pre-emergence, 240 h, 125 g ai/ha, 0 to 100 scale (0 no effect, 100 complete control), read-out: Plant response rating, Wheat

chemical string | unit of measure | plant injury at 125 g/ha
CCCc1nc(-c2ccc(F)cc2)nn1Cc1ccnc(C(F)(F)F)c1 | % | 10
CS(=O)(=O)c1nc(-c2ccc(F)cc2)nn1Cc1ccnc(C(F)(F)F)c1 | % | 0
Cn1nc(-c2ccc(F)cc2)nc1Oc1cccc(C(F)(F)F)c1 | % | 0
CCOc1nc(-c2ccc(F)cc2)nn1Cc1ccnc(C(F)(F)F)c1 | % | 80
CCc1nc(-c2ccc(C(F)(F)F)cc2)nn1Cc1ccnc(C(F)(F)F)c1 | % | 20

====

The following molecules are listed with their measured Plant response rating (scale of 0 to 100 where 0 is no effect and 100 is complete control) values.
Tested on: galium
assay remarks: Test C postemergence
Assay type: in vivo, Galium aparine
details: 250 g ai/ha
reported metric: Plant response rating (scale of 0 to 100 where 0 is no effect and 100 is complete control)

chemical string | measured number
CCCc1nc(-c2ccc(F)cc2)nn1Cc1ccnc(C(F)(F)F)c1 | 90
CCc1nc(-c2ccc(C(F)(F)F)cc2)nn1Cc1ccnc(C(F)(F)F)c1 | 90
COc1nc(-c2ccc(C(F)(F)F)cc2)nn1Cc1ccnc(C(F)(F)F)c1 | 90
FC(F)(F)COc1nc(-c2ccccc2)nn1Cc1ccnc(C(F)(F)F)c1 | 95
FC(F)(F)COc1nc(-c2ccc(Cl)cc2)nn1Cc1ccnc(C(F)(F)F)c1 | 80
CCOc1nc(-c2ccccc2)nn1Cc1ccnc(C(F)(F)F)c1 | 90
Fc1ccc(-c2nc(OCC(F)(F)F)n(Cc3ccnc(C(F)(F)F)c3)n2)cc1 | 90

====

Test system: nutsedge, yellow
assay remarks: Test C postemergence
Assay type: in vivo, Cyperus esculentus
details: 125 g ai/ha
The following compounds are listed with their measured Plant response rating (scale of 0 to 100 where 0 is no effect and 100 is complete control) values.
reported metric: Plant response rating (scale of 0 to 100 where 0 is no effect and 100 is complete control)

chemical string | measured number
COc1nc(-c2ccc(F)cc2)nn1Cc1ccnc(C(F)(F)F)c1 | 5
CCOc1nc(-c2ccc(Cl)cc2)nn1Cc1ccnc(C(F)(F)F)c1 | 20
COc1nc(-c2ccccc2)nn1Cc1ccnc(C(F)(F)F)c1 | 10
CCCc1nc(-c2ccc(F)cc2)nn1Cc1ccnc(C(F)(F)F)c1 | 5
CCOc1nc(-c2ccccc2)nn1Cc1ccnc(C(F)(F)F)c1 | 10
FC(F)(F)COc1nc(-c2ccccc2)nn1Cc1ccnc(C(F)(F)F)c1 | 20
CCOc1nc(-c2ccc(C(F)(F)F)cc2)nn1Cc1ccnc(C(F)(F)F)c1 | 30
COc1nc(-c2ccc(Cl)cc2)nn1Cc1ccnc(C(F)(F)F)c1 | 15

====

System: foxtail, giant
assay remarks: Test C preemergence
Format: in vivo, Setaria faberii
details: Foxtail, Giant, preemergence, 250 g ai/ha
The following molecules are listed with their measured Plant response rating (scale of 0 to 100 where 0 is no effect and 100 is complete control) values.
reported metric: Plant response rating (scale of 0 to 100 where 0 is no effect and 100 is complete control)

chemical string | measured number
CCOc1nc(-c2ccccc2)nn1Cc1ccnc(C(F)(F)F)c1 | 100
FC(F)(F)COc1nc(-c2ccccc2)nn1Cc1ccnc(C(F)(F)F)c1 | 100
COc1nc(-c2ccc(F)cc2)nn1Cc1ccnc(C(F)(F)F)c1 | 100
FC(F)(F)COc1nc(-c2ccc(Cl)cc2)nn1Cc1ccnc(C(F)(F)F)c1 | 100
Fc1ccc(-c2nc(OCC(F)(F)F)n(Cc3ccnc(C(F)(F)F)c3)n2)cc1 | 100

Data origin, for the record: patent US10681909B2
